Could you please report measured response rating for the items listed next?
test system: sorghum; experiment: Test A pre-emergence; type: in vivo; parameters: key: 0 = no effect, 10 = maximum effect; letter = response symbol; details: 0.4 kg/ha
Numbers only, in H.

compound | measured on | value unit | response rating
COc1nc(C)nc(NC(=O)NS(=O)(=O)c2ccccc2C(=O)OC(C)CCl)n1 (centres unmarked) [drawing 526] | sorghum | H | 9

# map each compound to its response rating
1. COc1cc(OC)nc(NC(=O)NS(=O)(=O)c2ccccc2C(=O)OCCCl)n1 [drawing 487]
2. C=CCCC(C)OC(=O)c1ccccc1S(=O)(=O)NC(=O)Nc1nc(C)nc(OC)n1 (centres unmarked) [drawing 522]
3. COC(=O)c1ccccc1S(=O)(=O)NC(=O)Nc1nc(OC)cc(OC(C)C(=O)OC)n1 (centres unmarked) [drawing 535]

Reply |
[9, 9, 10]

----------
tested on: rice; experiment: Test A post-emergence; assay type: in vivo; parameters: key: 0 = no effect, 10 = maximum effect; letter = response symbol; details: 0.4 kg/ha
observation type: response rating (C)
One number for each entry, in C.

compound | measured on | value unit | response rating
COc1cc(OC)nc(NC(=O)NS(=O)(=O)c2ccccc2C(=O)OC(C)C)n1 [drawing 436] | rice | C | 7

Quick request: response rating for each listed item, please.
1. COC(=O)c1ccccc1S(=O)(=O)NC(=O)Nc1nc(OC)cc(OC)n1 [drawing 414]
2. COC(=O)c1ccccc1S(=O)(=O)NC(=O)Nc1nc(OC)nc(OC)n1 [drawing 416]
3. COc1cc(C)nc(NC(=O)NS(=O)(=O)c2ccccc2C(=O)OC(C)C)n1 [drawing 437]

Reply |
1. 8
2. 10
3. 8

----------
I'd appreciate it if you could supply response rating values for the items below.
system: sorghum; assay: Test A pre-emergence; format: in vivo; set-up: key: 0 = no effect, 10 = maximum effect; letter = response symbol; conditions: 0.4 kg/ha
One number for each entry, in H.

molecule | response rating [H]
COc1cc(C)nc(NC(=O)NS(=O)(=O)c2ccccc2C(=O)CCC(C)C)n1 [drawing 516] | 9
COC(=O)c1ccccc1S(=O)(=O)NC(=O)Nc1nc(C)nc(N(C)C)n1 [drawing 539] | 9

Let us move to another entry and its response rating.
Ask | response rating for COCCCOc1cc(C)nc(NC(=O)NS(=O)(=O)c2ccccc2C(=O)OC)n1 [drawing 537] ?
Reply | 9

----------
test system: purple nutsedge; experiment: Test F post-emergence; assay type: in vivo, Cyperus rotundus; settings: .016 kg/ha
Kindly supply the reported response rating after 4 weeks values for the records listed here.
One number for each entry, in C.

compound | observation type | observed result
COc1nc(NC(=O)NS(=O)(=O)c2ccccc2C(=O)OC(C)C)nc(OC)n1 [drawing 600] | response rating after 4 weeks | 9
COC(=O)c1ccccc1S(=O)(=O)NC(=O)Nc1nc(C)cc(C)n1 [drawing 591] | response rating after 4 weeks | 9
COC(=O)c1ccccc1S(=O)(=O)NC(=O)Nc1nc(C)cc(OC)n1 [drawing 592] | response rating after 4 weeks | 9

Next up:
Ask | Report response rating after 4 weeks for COC(=O)c1ccccc1S(=O)(=O)NC(=O)Nc1nc(OC)cc(OC)n1 [drawing 593] please.
Reply | 10

----------
tested on: corn; assay: Test A pre-emergence; type: in vivo; design: key: 0 = no effect, 10 = maximum effect; letter = response symbol; conditions: 0.4 kg/ha
What response rating was measured for each of the following?
Give bare numbers, in G.

molecule | response rating (G)
COc1nc(NC(=O)NS(=O)(=O)c2ccccc2C(=O)OCCCl)nc(OC)n1 [drawing 489] | 9

As a next step, examine the molecule that follows.
Ask | If you can, please state the reported response rating value of COc1nc(C)nc(NC(=O)NS(=O)(=O)c2ccccc2C(=O)OC(C)C)n1 [drawing 492] .
Reply | 9
